target: LRP6.E1-E2-Fc (human); assay: ELISA
Sequence (chain, as listed by the source limits assumed): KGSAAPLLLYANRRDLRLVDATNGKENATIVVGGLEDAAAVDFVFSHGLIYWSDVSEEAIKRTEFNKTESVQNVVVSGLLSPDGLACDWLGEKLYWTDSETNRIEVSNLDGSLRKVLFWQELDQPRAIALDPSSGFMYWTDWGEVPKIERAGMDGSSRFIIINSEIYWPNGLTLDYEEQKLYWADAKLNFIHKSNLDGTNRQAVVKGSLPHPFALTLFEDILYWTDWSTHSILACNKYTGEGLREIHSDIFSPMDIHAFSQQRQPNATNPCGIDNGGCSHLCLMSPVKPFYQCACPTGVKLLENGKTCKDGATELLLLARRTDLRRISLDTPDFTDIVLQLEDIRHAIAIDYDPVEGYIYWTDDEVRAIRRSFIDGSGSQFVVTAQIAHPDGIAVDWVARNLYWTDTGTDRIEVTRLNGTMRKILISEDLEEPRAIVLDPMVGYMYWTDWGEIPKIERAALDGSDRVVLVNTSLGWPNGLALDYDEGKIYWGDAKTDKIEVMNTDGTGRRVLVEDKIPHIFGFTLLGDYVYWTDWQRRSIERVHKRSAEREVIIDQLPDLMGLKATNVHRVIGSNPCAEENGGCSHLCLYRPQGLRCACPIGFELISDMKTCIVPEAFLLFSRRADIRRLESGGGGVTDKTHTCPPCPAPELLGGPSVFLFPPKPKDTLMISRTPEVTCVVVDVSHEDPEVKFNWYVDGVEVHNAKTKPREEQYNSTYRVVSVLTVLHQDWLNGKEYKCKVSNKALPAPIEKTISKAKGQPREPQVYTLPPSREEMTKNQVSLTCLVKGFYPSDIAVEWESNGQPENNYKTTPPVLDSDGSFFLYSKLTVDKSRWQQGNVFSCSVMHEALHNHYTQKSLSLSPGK
result.type: binding result

# binder, result.type, meas.value
data = [
    ("YW211.08 antibody (antibody, V domains shown) VH: EVQLVESGGGLVQPGGSLRLSCAASGFTFTDYWIHWVRQAPGKGLEWVAGISPDGGSTYYADSVKGRFTISADTSKNTAYLQMNSLRAEDTAVYYCARWSYISRYFSSVMDYWGQGTLVTVSS VL: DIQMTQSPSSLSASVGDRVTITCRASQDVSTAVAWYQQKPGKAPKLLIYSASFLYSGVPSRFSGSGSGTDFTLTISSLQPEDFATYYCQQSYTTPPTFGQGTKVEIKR", "binding result", "no binding"),
    ("YW211.33 antibody (antibody, V domains shown) VH: EVQLVESGGGLVQPGGSLRLSCAASGFTFSGSSISWVRQAPGKGLEWVGVISPSSGATYYADSVKGRFTISADTSKNTAYLQMNSLRAEDTAVYYCARWPAGAFLGYYGMDYWGQGTLVTVSS VL: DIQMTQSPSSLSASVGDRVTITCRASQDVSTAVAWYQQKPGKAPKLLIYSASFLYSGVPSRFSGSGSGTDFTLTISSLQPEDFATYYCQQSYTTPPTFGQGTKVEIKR", "binding result", "no binding"),
    ("YW211.11 antibody (antibody, V domains shown) VH: EVQLVESGGGLVQPGGSLRLSCAASGFTFTNYDIHWVRQAPGKGLEWVASIYPAGGDTDYADSVKGRFTISADTSKNTAYLQMNSLRAEDTAVYYCARSPGWALRGAMDYWGQGTLVTVSS VL: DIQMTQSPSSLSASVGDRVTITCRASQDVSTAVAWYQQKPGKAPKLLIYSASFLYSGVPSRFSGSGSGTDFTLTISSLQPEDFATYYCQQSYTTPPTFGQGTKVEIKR", "binding result", "no binding"),
]
